Data credit: patent US7511133B2

Molecular target: human A3 adenosine receptors (Homo sapiens, UniProt P0DMS8)
Sequence (P0DMS8 whole entry): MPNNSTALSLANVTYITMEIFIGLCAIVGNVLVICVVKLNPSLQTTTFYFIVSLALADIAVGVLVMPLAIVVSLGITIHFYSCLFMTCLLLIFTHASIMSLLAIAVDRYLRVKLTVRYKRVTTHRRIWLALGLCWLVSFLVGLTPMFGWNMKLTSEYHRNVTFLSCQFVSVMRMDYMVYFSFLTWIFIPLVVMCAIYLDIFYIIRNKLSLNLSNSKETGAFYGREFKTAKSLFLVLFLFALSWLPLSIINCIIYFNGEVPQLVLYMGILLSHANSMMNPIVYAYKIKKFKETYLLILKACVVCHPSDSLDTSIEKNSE
metric: Ki (nM)
The answer is to be given in nM; state only the numeric part.

Recorded Ki, per entry:
>  <compound>
CCNC(=O)[C@H]1O[C@@H](n2cnc3c(NC(=O)Nc4ccc(S(=O)(=O)N5CCCC5)cc4)ncnc32)[C@H](O)[C@@H]1O

>  <test system>
human A3 adenosine receptors (Homo sapiens, UniProt P0DMS8)

>  <metric>
Ki

>  <obs value>
22

$$$$
>  <compound>
CCNC(=O)[C@H]1O[C@@H](n2cnc3c(NC(=O)Nc4ccc(S(=O)(=O)N5CCOCC5)cc4)ncnc32)C(O)C1O (stereo partly drawn)

>  <test system>
human A3 adenosine receptors (Homo sapiens, UniProt P0DMS8)

>  <metric>
Ki

>  <obs value>
20

$$$$
>  <compound>
CCNC(=O)[C@H]1O[C@@H](n2cnc3c(NC(=O)Nc4ccc(S(=O)(=O)NC5CCCC5)cc4)ncnc32)[C@H](O)[C@@H]1O

>  <test system>
human A3 adenosine receptors (Homo sapiens, UniProt P0DMS8)

>  <metric>
Ki

>  <obs value>
24

$$$$

Request body: readout Ki, system human A3 adenosine receptors (Homo sapiens, UniProt P0DMS8), query `CCNC(=O)[C@H]1O[C@@H](n2cnc3c(NC(=O)Nc4ccc(S(=O)(=O)NC56CC7CC(CC(C7)C5)C6)cc4)ncnc32)[C@H](O)[C@@H]1O` . Return the value.
35

Request body: readout Ki, system human A3 adenosine receptors (Homo sapiens, UniProt P0DMS8), query `CCCCCNS(=O)(=O)c1ccc(NC(=O)Nc2ncnc3c2ncn3[C@@H]2O[C@H](C(=O)NCC)[C@@H](O)[C@H]2O)cc1` . Return the value.
80

Request body: readout Ki, system human A3 adenosine receptors (Homo sapiens, UniProt P0DMS8), query `CCNC(=O)[C@H]1O[C@@H](n2cnc3c(NC(=O)Nc4ccc(S(=O)(=O)N(CCCl)CCCl)cc4)ncnc32)[C@H](O)[C@@H]1O` . Return the value.
23

---

Molecular target: human A1 receptors (Homo sapiens, UniProt P30542)
Construct: expressed in transfected cells; host or cells: CHO cells
Sequence (P30542 whole entry): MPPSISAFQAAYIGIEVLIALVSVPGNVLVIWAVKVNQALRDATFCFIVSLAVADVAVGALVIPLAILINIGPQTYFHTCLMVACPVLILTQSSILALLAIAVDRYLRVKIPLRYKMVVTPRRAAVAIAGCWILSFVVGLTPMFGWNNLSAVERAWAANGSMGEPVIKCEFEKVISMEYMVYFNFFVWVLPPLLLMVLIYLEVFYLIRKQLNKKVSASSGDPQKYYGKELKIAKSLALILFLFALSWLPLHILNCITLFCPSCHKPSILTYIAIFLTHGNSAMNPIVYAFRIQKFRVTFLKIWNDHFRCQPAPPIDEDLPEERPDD
Test: [^3H] DPCPX binding to human A1 receptors expressed in CHO cells (antagonist radioligand)
metric: Ki

What value of Ki has been reported for the following molecule? `CCNC(=O)[C@H]1O[C@@H](n2cnc3c(NC(=O)Nc4ccc(S(=O)(=O)N(CCCl)CCCl)cc4)ncnc32)[C@H](O)[C@@H]1O`
> 1 µM

---

metric: melting point

Recorded melting point, per entry:
>  <compound>
CCNC(=O)[C@H]1O[C@@H](n2cnc3c(NC(=O)Nc4ccc(S(=O)(=O)N(C)C)cc4)ncnc32)C(O)C1O (some centres unmarked) [Compound 98]

>  <melting point>
176 °C

$$$$
>  <compound>
CCNC(=O)[C@H]1O[C@@H](n2cnc3c(NC(=O)Nc4ccc(S(=O)(=O)N(C)C(C)C)cc4)ncnc32)C(O)C1O (some centres unmarked) [Compound 97]

>  <melting point>
140 °C

$$$$
>  <compound>
CCCCCNS(=O)(=O)c1cccc(NC(=O)Nc2ncnc3c2ncn3[C@@H]2O[C@H](C(=O)NCC)C(O)C2O)c1 (some centres unmarked) [Compound 104]

>  <melting point>
158 to 159 °C

$$$$

Now, please, on to the next compound.
What value of melting point has been reported for the following compound? CCCCCNS(=O)(=O)c1ccccc1NC(=O)Nc1ncnc2c1ncn2[C@@H]1O[C@H](C(=O)NCC)C(O)C1O (some centres unmarked) [Compound 108]
155 to 157 °C

---

Molecular target: human A3 adenosine receptors (Homo sapiens, UniProt P0DMS8)
Details: ratio Ki(A1)/Ki(A3), agonist radioligands
metric: A1/A3
The answer should be a number; do not append a unit.

>  <compound>
CCNC(=O)[C@H]1O[C@@H](n2cnc3c(NC(=O)Nc4ccc(S(=O)(=O)N5CCOCC5)cc4)ncnc32)C(O)C1O (stereo partly drawn) [Compound 84]

>  <A1/A3>
36.25

$$$$

What value of A1/A3 has been reported for the following compound? CCNC(=O)[C@H]1O[C@@H](n2cnc3c(NC(=O)Nc4ccc(S(=O)(=O)NC5CC5)cc4)ncnc32)[C@H](O)[C@@H]1O [Compound 89]
11.6

What value of A1/A3 has been reported for the following compound? CCNC(=O)[C@H]1O[C@@H](n2cnc3c(NC(=O)Nc4ccc(S(=O)(=O)NC(C)(C)C)cc4)ncnc32)[C@H](O)[C@@H]1O [Compound 92]
12.5

---

Target: human A1 adenosine receptors (Homo sapiens, UniProt P30542)
Sequence (P30542 whole entry): as above
Test: Displacement of [^3H]CHA binding, human A1 adenosine receptors in CHO cells (agonist radioligand)
// reported pKi per item
Expect pKi as a plain number equal to -log10 of the molar concentration.

>  <compound>
C=CCN(CC=C)S(=O)(=O)c1ccc(NC(=O)Nc2ncnc3c2ncn3[C@@H]2O[C@H](C(=O)NCC)[C@@H](O)[C@H]2O)cc1 [Compound 99]

>  <test system>
human A1 adenosine receptors (Homo sapiens, UniProt P30542)

>  <pKi>
6.42

$$$$

Request body: readout pKi, system human A1 adenosine receptors (Homo sapiens, UniProt P30542), query CCCCCNS(=O)(=O)c1ccc(NC(=O)Nc2ncnc3c2ncn3[C@@H]2O[C@H](C(=O)NCC)[C@@H](O)[C@H]2O)cc1 [Compound 87] . Return the value.
6.35

Request body: readout pKi, system human A1 adenosine receptors (Homo sapiens, UniProt P30542), query CCNC(=O)[C@H]1O[C@@H](n2cnc3c(NC(=O)Nc4ccc(S(=O)(=O)Nc5ccc(OC)cc5)cc4)ncnc32)[C@H](O)[C@@H]1O [Compound 88] . Return the value.
6.55

Request body: readout pKi, system human A1 adenosine receptors (Homo sapiens, UniProt P30542), query CCNC(=O)[C@H]1O[C@@H](n2cnc3c(NC(=O)Nc4ccc(S(=O)(=O)NC5CCCC5)cc4)ncnc32)[C@H](O)[C@@H]1O [Compound 95] . Return the value.
6.38

Request body: readout pKi, system human A1 adenosine receptors (Homo sapiens, UniProt P30542), query CCNC(=O)[C@H]1O[C@@H](n2cnc3c(NC(=O)Nc4ccc(S(=O)(=O)NCc5ccccc5)cc4)ncnc32)[C@H](O)[C@@H]1O [Compound 86] . Return the value.
6.52

---

// reported melting point per item

>  <compound>
CCNC(=O)[C@H]1O[C@@H](n2cnc3c(NC(=O)Nc4ccc(S(=O)(=O)NC5CCCCC5)cc4)ncnc32)[C@H](O)[C@@H]1O

>  <obs value>
179 to 183 °C

$$$$
>  <compound>
CCNC(=O)[C@H]1O[C@@H](n2cnc3c(NC(=O)Nc4ccccc4S(=O)(=O)N(C)C(C)C)ncnc32)C(O)C1O (stereo partly shown)

>  <obs value>
142 to 144 °C

$$$$
>  <compound>
CCCCCNS(=O)(=O)c1ccc(NC(=O)Nc2ncnc3c2ncn3[C@@H]2O[C@H](C(=O)NCC)[C@@H](O)[C@H]2O)cc1

>  <obs value>
199 °C

$$$$

Now, please, on to the next compound.
What value of melting point has been reported for the following compound? `CCNC(=O)[C@H]1O[C@@H](n2cnc3c(NC(=O)Nc4ccc(S(=O)(=O)N5CCCCC5)cc4)ncnc32)[C@H](O)[C@@H]1O`
176 to 178 °C
